# maps each entry to its TGI
Test system: TK-10 renal
Test: NCI tumour cell line growth inhibition, 48 h
readout: TGI

[[record]]
compound = "C=C1CC[C@@H]2[C@](C)(COC(C)=O)[C@@H](O)CC[C@@]2(C)[C@@H]1COc1ccc2ccc(=O)oc2c1"
result = "> 100 µM"

[[record]]
compound = "COc1ccc(OC)c(NC(=O)CCC/C(CC(=O)c2ccc(O)c(OC)c2)=N\\NC(=O)C[N+](C)(C)C)c1"
result = "> 100 µM"

[[record]]
compound = "CCCCCC/C=C\\CCCCCCCCCc1cccc(O)c1C(=O)O"
result = "> 100 µM"

[[record]]
compound = "O=C(Cn1c2c(c3ccccc31)CCCC2)NC1CCCCC1"
result = "> 100 µM"

[[record]]
compound = "CC(=O)OCC(OC(C)=O)C(OC(C)=O)C(C=NN(C(C)=O)S(=O)(=O)c1ccc(/C=C2\\NC(=O)NC2=O)cc1)OC(C)=O (stereo not given)"
result = "> 100 µM"

[[record]]
compound = "CC(CN1CCN(CCOCCO)CC1)CN1c2ccccc2Sc2ccc(Cl)cc21 (stereo not given)"
result = "6.45 µM"

[[record]]
compound = "CC12Nc3ccccc3N1C(=O)c1ccccc12 (stereo not given)"
result = "> 100 µM"

[[record]]
compound = "Cc1ccc(/C=N/Nc2cnccn2)s1"
result = "> 100 µM"

[[record]]
compound = "CCOC(=O)C(=O)Nc1c(CC)cccc1C(C)C"
result = "> 100 µM"

[[record]]
compound = "COc1cccc(/C=C2/Sc3scc(-c4ccccc4)[n+]3C2=O)c1O"
result = "68.4 µM"

